Reference source for all entries: patent US20200339544A1

I'd be grateful if you could share measured Stability in SGF, % for these entries.
experiment: Chemical stability in simulated gastric fluid (SGF)
Format: physicochemical
measurement_conditions: SGF without enzymes, pH 1,4; 10 μm; 2 hours at 37° C.; substance amount remaining
One number for each entry, in %.

C=CC(=O)Nc1cc(Nc2nccc(C(=O)c3ccc(OCC(C)C)cc3)n2)c(OC)cc1N(C)CCN(C)C
91.1
C=CC(=O)Nc1cc(Nc2nccc(C(=O)c3cccc([N+](=O)[O-])c3)n2)c(OC)cc1N(C)CCN(C)C
99.0

Asked: Consider the molecule C=CC(=O)Nc1cc(Nc2cc(C(=O)c3ccc(N(C)C)cc3)ccn2)c(OC)cc1N(C)CCN(C)C.O=C(O)C(F)(F)F . State its measured Stability in SGF, %.
Given back: 100.0
